Provide the recorded inhibition for the entries that follow.
Biological target: Hexokinase HKDC1 (Homo sapiens) (UniProt Q2TB90)
Sequence (Q2TB90 whole entry, looked up): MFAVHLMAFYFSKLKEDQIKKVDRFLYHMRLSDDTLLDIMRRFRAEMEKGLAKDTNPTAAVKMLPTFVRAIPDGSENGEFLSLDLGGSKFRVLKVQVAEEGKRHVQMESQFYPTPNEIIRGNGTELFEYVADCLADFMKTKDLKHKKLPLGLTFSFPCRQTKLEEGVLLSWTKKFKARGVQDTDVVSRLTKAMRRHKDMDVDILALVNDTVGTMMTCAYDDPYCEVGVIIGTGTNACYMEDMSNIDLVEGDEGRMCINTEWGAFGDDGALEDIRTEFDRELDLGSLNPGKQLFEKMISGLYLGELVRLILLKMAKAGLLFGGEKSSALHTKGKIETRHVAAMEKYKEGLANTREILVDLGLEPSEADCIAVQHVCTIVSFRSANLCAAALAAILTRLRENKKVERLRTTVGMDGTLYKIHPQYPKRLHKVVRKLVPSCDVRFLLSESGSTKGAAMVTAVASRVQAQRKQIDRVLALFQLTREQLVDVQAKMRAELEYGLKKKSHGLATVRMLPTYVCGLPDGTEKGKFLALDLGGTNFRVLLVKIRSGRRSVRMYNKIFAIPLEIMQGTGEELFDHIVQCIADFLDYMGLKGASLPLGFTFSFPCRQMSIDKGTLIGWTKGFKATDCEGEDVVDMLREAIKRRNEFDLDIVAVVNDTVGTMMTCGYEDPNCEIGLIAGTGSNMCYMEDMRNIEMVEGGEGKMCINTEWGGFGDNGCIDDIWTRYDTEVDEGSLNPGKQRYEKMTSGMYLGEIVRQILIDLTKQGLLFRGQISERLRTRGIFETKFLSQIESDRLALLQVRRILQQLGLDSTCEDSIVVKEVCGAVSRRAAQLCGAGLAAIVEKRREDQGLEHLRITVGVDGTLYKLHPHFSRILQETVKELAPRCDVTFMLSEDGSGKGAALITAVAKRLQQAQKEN
Test: HKDC1 hexokinase inhibitors, confirmation, biochemical, single concentration (AID 504710)
Settings: recombinant HKDC1, G6PDH/diaphorase/resazurin fluorescence; at 20 µM; hits give high values
Numbers only, in %.

- CCOC(=O)C1=C(c2ccc(OC)cc2)C(=O)c2ccccc2C1=O: 75
- Cc1ccc(C)c(-n2c3nc(=O)[nH]c(=O)c-3cc3cc([N+](=O)[O-])ccc32)c1: 39.2
- S=C(NCc1ccccn1)NN=Cc1ccccn1: -45.4
- O=C(O)COc1ccc(/C=N/NC(=O)c2ccc(-c3csc(Nc4ccc(Cl)cc4)n3)cc2)cc1: 24.2
- CCCCNC(=O)c1sc(=S)n2c1[nH]c(=O)c1ccccc12: 56.5
- S=C(NN=C(c1ccccc1)c1ccccn1)N(Cc1ccccn1)Cc1ccccn1: -59.4
- Cc1ccccc1N=C1NN=C(c2ccccc2F)CS1: -40.3
- O=C(NC(=S)NNC(=O)c1cnccn1)c1ccc(F)cc1: -36.1

For every listed record, write down its inhibition.
1. CCCCN(CCCC)C(=S)N/N=C/c1c(C)[nH]n(-c2ccccc2)c1=O
2. C=CCn1nc([N+](=O)[O-])nc1Sc1cccc2cccnc12

[-65, -52.4]

Form field: reported inhibition of CCCC(=O)NC1=C(Cl)C(=O)c2ccccc2C1=O
81.4

Attribution: PubChem BioAssay AID504710
